Data provenance is paper PMC3419191.

test system: HL60; test: MTT assay, antiproliferative activity against HL60 cells; type: cell-based; details: Homo sapiens, HL-60, 72 h, mean of at least two determinations
endpointName: IC50 (µM)

Here is how some compounds turned out for IC50.
>>> print(df.to_string())
                                   compound  targetentity  numericvalue
0  O=S(=O)(c1ccccc1)c1nc2ccccc2nc1N1CCOCC1 [WR1, reference compound]          HL60          4.47
1  O=C(c1ccccc1)N1CCN(c2nc3ccccc3nc2S(=O)(=O)c2ccccc2)CC1          HL60           7.2

1: Cc1ccc(S(=O)(=O)N2CCN(c3nc4ccccc4nc3S(=O)(=O)c3ccc(F)cc3)CC2)cc1
2: COc1ccc(S(=O)(=O)c2nc3ccccc3nc2N2CCNC(C)C2)cc1 (stereo not shown)
query: Two entries are listed, 1 and 2 . Which one carries the higher IC50? Answer = label.
result: 1

###

tested on: HL60; assay: MTT assay, antiproliferative activity against HL60 cells; type: cell-based; settings: Homo sapiens, HL-60, 72 h, mean of at least two determinations
pIC50: −log10 of the molar value.
endpointName: pIC50

Here is how some molecules turned out for pIC50.
                                   molecule  endpointname  numericvalue
0  Cc1ccc(S(=O)(=O)c2nc3ccccc3nc2N2CCC(C(N)=O)CC2)cc1         pIC50          6.85
1  O=C(c1ccc(Cl)cc1)N1CCN(c2nc3ccccc3nc2S(=O)(=O)c2ccc(Br)cc2)CC1         pIC50          5.21
2  Cc1ccc(S(=O)(=O)c2nc3ccccc3nc2N2CCN(C(=O)c3ccccc3)CC2)cc1         pIC50          4.76
3  COc1ccc(S(=O)(=O)c2nc3ccccc3nc2N2CCN(C)CC2)cc1         pIC50          6.27
4  O=C(c1ccccc1)N1CCN(c2nc3ccccc3nc2S(=O)(=O)c2ccc(F)cc2)CC1         pIC50          5.16
5  Cc1ccc(S(=O)(=O)N2CCN(c3nc4ccccc4nc3S(=O)(=O)c3ccccc3)CC2)cc1         pIC50          5.19
6  COc1ccc(S(=O)(=O)c2nc3ccccc3nc2N2CCN(S(=O)(=O)c3ccc(C)cc3)CC2)cc1         pIC50          4.83
7  CC(=O)N1CCN(c2nc3ccccc3nc2S(=O)(=O)c2ccccc2)CC1         pIC50          5.61
8  COc1ccc(S(=O)(=O)c2nc3ccccc3nc2N2CCN(C(C)=O)CC2)cc1         pIC50          6.32
9  O=C(c1ccccc1)N1CCN(c2nc3ccccc3nc2S(=O)(=O)c2ccc(Br)cc2)CC1         pIC50          4.76

I: NC(=O)C1CCN(c2nc3ccccc3nc2S(=O)(=O)c2ccccc2)CC1
II: CC(=O)N1CCN(c2nc3ccccc3nc2S(=O)(=O)c2ccc(F)cc2)CC1
query: Among I and II , whose measured pIC50 is the smaller figure? Answer = label.
result: II
(II: 5.75, I: 6.66)

1: O=S(=O)(c1ccc(Br)cc1)c1nc2ccccc2nc1N1CCNCC1
2: CC1CN(c2nc3ccccc3nc2S(=O)(=O)c2ccc(F)cc2)CCN1 (centres unmarked)
query: Among 1 and 2 , whose measured pIC50 is the smaller figure? Answer = label.
result: 2
